For each entry below, report its Stability value.
method_description: Stability of the compound in pH 4.5 acetate buffer assessed as compound mean nano particles size at 2 mg/ml by quasi-elastic light scattering method
Type: physicochemical

**Q:** Given CC(=O)O[C@H]1C(=O)[C@@]2(C)[C@H]([C@H](OC(=O)c3ccccc3)[C@]3(O)C[C@H](OC(=O)[C@H](OC(=O)CCCCCCCCC(=O)OCCC/C(C)=C/CC/C(C)=C/CC/C=C(\C)CC/C=C(\C)CCC=C(C)C)[C@@H](NC(=O)c4ccccc4)c4ccccc4)C(C)=C1C3(C)C)[C@]1(OC(C)=O)CO[C@@H]1C[C@@H]2O , state its recorded Stability.
**A:** > 2 um

**Q:** So what does the record say about Stability for CC(=O)O[C@H]1C(=O)[C@@]2(C)[C@H]([C@H](OC(=O)c3ccccc3)[C@]3(O)C[C@H](OC(=O)[C@H](OC(=O)CCCSSCCCC(=O)OCCC/C(C)=C/CC/C(C)=C/CC/C=C(\C)CC/C=C(\C)CCC=C(C)C)[C@@H](NC(=O)c4ccccc4)c4ccccc4)C(C)=C1C3(C)C)[C@]1(OC(C)=O)CO[C@@H]1C[C@@H]2O ?
**A:** > 2 um

**Q:** # query: Stability of entry CC(C)=CCC/C(C)=C/CC/C(C)=C/CC/C=C(\C)CC/C=C(\C)CCCOC(=O)CCCSSCCCC(=O)O[C@H]1[C@@H](C)CCC[C@H]2O[C@H]2C[C@@H](/C(C)=C/c2csc(C)n2)OC(=O)C[C@H](O)C(C)(C)C(=O)[C@@H]1C
**A:** 201.5 nm

**Q:** Consider the compound shown here: COc1cc([C@@H]2c3cc4c(cc3[C@H](OC(=O)CCCCCCCCC(=O)OCCC/C(C)=C/CC/C(C)=C/CC/C=C(\C)CC/C=C(\C)CCC=C(C)C)[C@H]3COC(=O)[C@H]23)OCO4)cc(OC)c1OC What is its recorded Stability?
**A:** 287.5 nm

###

method_description: Stability of the compound in presence of 100 mM NaCl assessed as compound mean nano particles size at 2 mg/ml by quasi-elastic light scattering method
Format: physicochemical
Task for the reader: assign each of the following compounds its reported Stability.
Note: unit nm is implicit; provide only the numeric part.

**Q:** For COc1cc([C@@H]2c3cc4c(cc3[C@H](OC(=O)CCCCCCCCC(=O)OCCC/C(C)=C/CC/C(C)=C/CC/C=C(\C)CC/C=C(\C)CCC=C(C)C)[C@H]3COC(=O)[C@H]23)OCO4)cc(OC)c1OC , what is its reported Stability?
**A:** 720.3

**Q:** I have this compound here, COc1cc([C@@H]2c3cc4c(cc3[C@H](OC(=O)CCCSSCCCC(=O)OCCC/C(C)=C/CC/C(C)=C/CC/C=C(\C)CC/C=C(\C)CCC=C(C)C)[C@H]3COC(=O)[C@H]23)OCO4)cc(OC)c1OC , and I need its recorded Stability.
**A:** 676

###

System: A549
method_description: Inhibition of microtubule bundle formation in human A549 cells assessed as cell shrinking at 200 ug/mL incubated for 1 hr by alpha-tubulin staining based fluorescence microscopy
Activity calls are given as the source filed them. The calls are words filed in the database; no cut-off is given here.
measured_metric: inhibition

COc1cc([C@@H]2c3cc4c(cc3[C@H](OC(=O)CCCSSCCCC(=O)OCCC/C(C)=C/CC/C(C)=C/CC/C=C(\C)CC/C=C(\C)CCC=C(C)C)[C@H]3COC(=O)[C@H]23)OCO4)cc(OC)c1OC    Active
CC(=O)O[C@H]1C(=O)[C@@]2(C)[C@H]([C@H](OC(=O)c3ccccc3)[C@]3(O)C[C@H](OC(=O)[C@H](OC(=O)CCCSSCCCC(=O)OCCC/C(C)=C/CC/C(C)=C/CC/C=C(\C)CC/C=C(\C)CCC=C(C)C)[C@@H](NC(=O)c4ccccc4)c4ccccc4)C(C)=C1C3(C)C)[C@]1(OC(C)=O)CO[C@@H]1C[C@@H]2O    Active

###

method_description: Stability of the compound in pH 4.5 citrate buffer assessed as compound mean nano particles size at 2 mg/ml by quasi-elastic light scattering method
Format: physicochemical
measured_metric: Stability (nm)
Could you give me the number in nm? Just the number is fine.

**Q:** Name the recorded Stability for CC(C)=CCC/C(C)=C/CC/C(C)=C/CC/C=C(\C)CC/C=C(\C)CCCOC(=O)CCCCCCCCC(=O)O[C@H]1[C@@H](C)CCC[C@H]2O[C@H]2C[C@@H](/C(C)=C/c2csc(C)n2)OC(=O)C[C@H](O)C(C)(C)C(=O)[C@@H]1C .
**A:** 203.2

**Q:** Sample CC(C)=CCC/C(C)=C/CC/C(C)=C/CC/C=C(\C)CC/C=C(\C)CCCOC(=O)CCCSSCCCC(=O)O[C@H]1[C@@H](C)CCC[C@H]2O[C@H]2C[C@@H](/C(C)=C/c2csc(C)n2)OC(=O)C[C@H](O)C(C)(C)C(=O)[C@@H]1C — what was its Stability?
**A:** 197.8

**Q:** Look at this compound and give its reported Stability. COc1cc([C@@H]2c3cc4c(cc3[C@H](OC(=O)CCCSSCCCC(=O)OCCC/C(C)=C/CC/C(C)=C/CC/C=C(\C)CC/C=C(\C)CCC=C(C)C)[C@H]3COC(=O)[C@H]23)OCO4)cc(OC)c1OC
**A:** 428.3

**Q:** I would be grateful if you could share the reported Stability for CC[C@@]1(OC(=O)CCCCCCCCC(=O)OCCC/C(C)=C/CC/C(C)=C/CC/C=C(\C)CC/C=C(\C)CCC=C(C)C)C(=O)OCc2c1cc1n(c2=O)Cc2cc3ccccc3nc2-1 .
**A:** 375.4

###

Assign remaining at 48 h, 2 mg/ml to each entry below.
method_description: Stability in human serum at 37 degC assessed as ratio of HPLC area of peaks corresponding to intact compound at time zero at 2 mg/ml measured after 48 hrs
Format: ADME, cell-free
condition: read-out: Stability
Respond numerically; units are % and should not be typed.

**Q:** What value of remaining at 48 h, 2 mg/ml has been reported for the following compound? CC[C@@]1(OC(=O)CCCCCCCCC(=O)OCCC/C(C)=C/CC/C(C)=C/CC/C=C(\C)CC/C=C(\C)CCC=C(C)C)C(=O)OCc2c1cc1n(c2=O)Cc2cc3ccccc3nc2-1
**A:** 85

**Q:** Sample COc1cc([C@@H]2c3cc4c(cc3[C@H](OC(=O)CCCSSCCCC(=O)OCCC/C(C)=C/CC/C(C)=C/CC/C=C(\C)CC/C=C(\C)CCC=C(C)C)[C@H]3COC(=O)[C@H]23)OCO4)cc(OC)c1OC — what was its remaining at 48 h, 2 mg/ml?
**A:** 52

**Q:** Which value of remaining at 48 h, 2 mg/ml has been reported for CC(C)=CCC/C(C)=C/CC/C(C)=C/CC/C=C(\C)CC/C=C(\C)CCCOC(=O)CCCSSCCCC(=O)O[C@H]1[C@@H](C)CCC[C@H]2O[C@H]2C[C@@H](/C(C)=C/c2csc(C)n2)OC(=O)C[C@H](O)C(C)(C)C(=O)[C@@H]1C in the records?
**A:** 58

**Q:** // query remaining at 48 h, 2 mg/ml value for entry CC(=O)O[C@H]1C(=O)[C@@]2(C)[C@H]([C@H](OC(=O)c3ccccc3)[C@]3(O)C[C@H](OC(=O)[C@H](OC(=O)CCCSSCCCC(=O)OCCC/C(C)=C/CC/C(C)=C/CC/C=C(\C)CC/C=C(\C)CCC=C(C)C)[C@@H](NC(=O)c4ccccc4)c4ccccc4)C(C)=C1C3(C)C)[C@]1(OC(C)=O)CO[C@@H]1C[C@@H]2O
**A:** 93

###

method_description: Stability of the compound in pH 7.5 phosphate buffer assessed as compound mean nano particles size at 2 mg/ml by quasi-elastic light scattering method
Assay type: physicochemical
Would you mind telling me the reported Stability of each entry?
# include the unit after the value

**Q:** GET /values?readout=Stability&item= COc1cc([C@@H]2c3cc4c(cc3[C@H](OC(=O)CCCSSCCCC(=O)OCCC/C(C)=C/CC/C(C)=C/CC/C=C(\C)CC/C=C(\C)CCC=C(C)C)[C@H]3COC(=O)[C@H]23)OCO4)cc(OC)c1OC
**A:** 201.5 nm

**Q:** State the recorded Stability for this entry: CC(=O)O[C@H]1C(=O)[C@@]2(C)[C@H]([C@H](OC(=O)c3ccccc3)[C@]3(O)C[C@H](OC(=O)[C@H](OC(=O)CCCCCCCCC(=O)OCCC/C(C)=C/CC/C(C)=C/CC/C=C(\C)CC/C=C(\C)CCC=C(C)C)[C@@H](NC(=O)c4ccccc4)c4ccccc4)C(C)=C1C3(C)C)[C@]1(OC(C)=O)CO[C@@H]1C[C@@H]2O
**A:** 125.6 nm

###

What Stability was measured for each of the following?
method_description: Stability of the compound assessed as compound mean nano particles size diluted with water at 2 mg/ml measured after 3 months at 5 degC by quasi-elastic light scattering method
Type: physicochemical
condition: buffer, 2191.5 h

**Q:** What value of measured Stability is listed for CC(=O)O[C@H]1C(=O)[C@@]2(C)[C@H]([C@H](OC(=O)c3ccccc3)[C@]3(O)C[C@H](OC(=O)[C@H](OC(=O)CCCSSCCCC(=O)OCCC/C(C)=C/CC/C(C)=C/CC/C=C(\C)CC/C=C(\C)CCC=C(C)C)[C@@H](NC(=O)c4ccccc4)c4ccccc4)C(C)=C1C3(C)C)[C@]1(OC(C)=O)CO[C@@H]1C[C@@H]2O ?
**A:** 106.5 nm

**Q:** Return reported Stability; argument: CC(=O)O[C@H]1C(=O)[C@@]2(C)[C@H]([C@H](OC(=O)c3ccccc3)[C@]3(O)C[C@H](OC(=O)[C@H](OC(=O)OCC/C(C)=C/CC/C(C)=C/CC/C=C(\C)CC/C=C(\C)CCC=C(C)C)[C@@H](NC(=O)c4ccccc4)c4ccccc4)C(C)=C1C3(C)C)[C@]1(OC(C)=O)CO[C@@H]1C[C@@H]2O
**A:** 181.1 nm

**Q:** What does the data say about its Stability? Entry: CC[C@@]1(OC(=O)CCCSSCCCC(=O)OCCC/C(C)=C/CC/C(C)=C/CC/C=C(\C)CC/C=C(\C)CCC=C(C)C)C(=O)OCc2c1cc1n(c2=O)Cc2cc3ccccc3nc2-1
**A:** 210.2 nm

**Q:** Give the measured Stability of CC(C)=CCC/C(C)=C/CC/C(C)=C/CC/C=C(\C)CC/C=C(\C)CCCOC(=O)CCCCCCCCC(=O)O[C@H]1[C@@H](C)CCC[C@H]2O[C@H]2C[C@@H](/C(C)=C/c2csc(C)n2)OC(=O)C[C@H](O)C(C)(C)C(=O)[C@@H]1C .
**A:** 142.9 nm

**Q:** Entry CC(=O)O[C@H]1C(=O)[C@@]2(C)[C@H]([C@H](OC(=O)c3ccccc3)[C@]3(O)C[C@H](OC(=O)[C@H](OC(=O)CCCCCCCCC(=O)OCCC/C(C)=C/CC/C(C)=C/CC/C=C(\C)CC/C=C(\C)CCC=C(C)C)[C@@H](NC(=O)c4ccccc4)c4ccccc4)C(C)=C1C3(C)C)[C@]1(OC(C)=O)CO[C@@H]1C[C@@H]2O has what Stability?
**A:** 110.5 nm

**Q:** Given the molecule CC(C)=CCC/C(C)=C/CC/C(C)=C/CC/C=C(\C)CC/C=C(\C)CCCOC(=O)CCCSSCCCC(=O)O[C@H]1[C@@H](C)CCC[C@H]2O[C@H]2C[C@@H](/C(C)=C/c2csc(C)n2)OC(=O)C[C@H](O)C(C)(C)C(=O)[C@@H]1C , what is its reported Stability?
**A:** 191.1 nm

**Q:** Report Stability for CC[C@@]1(OC(=O)CCCCCCCCC(=O)OCCC/C(C)=C/CC/C(C)=C/CC/C=C(\C)CC/C=C(\C)CCC=C(C)C)C(=O)OCc2c1cc1n(c2=O)Cc2cc3ccccc3nc2-1 please.
**A:** 172.4 nm

**Q:** Need Stability, item COc1cc([C@@H]2c3cc4c(cc3[C@H](OC(=O)CCCCCCCCC(=O)OCCC/C(C)=C/CC/C(C)=C/CC/C=C(\C)CC/C=C(\C)CCC=C(C)C)[C@H]3COC(=O)[C@H]23)OCO4)cc(OC)c1OC
**A:** 210.5 nm

**Q:** Which Stability is listed for COc1cc([C@@H]2c3cc4c(cc3[C@H](OC(=O)CCCSSCCCC(=O)OCCC/C(C)=C/CC/C(C)=C/CC/C=C(\C)CC/C=C(\C)CCC=C(C)C)[C@H]3COC(=O)[C@H]23)OCO4)cc(OC)c1OC ?
**A:** 215.3 nm
